compounds and their reported log10 of IC50
System: HSV-1
ASSAY OVERVIEW: HSV Antiviral (ELISA) Assay
Type: cell-based, herpes simplex virus type 1
RUN PARAMETERS: Human alphaherpesvirus 1, Vero, Vero cells, HSV-1; read-out: IC50 Ug/ml HSV
Heads up, the numbers here are log10 of IC50 in µg/mL units.

Here is how some compounds turned out for log10 of IC50.
>>> quantitative_result("COC(=O)COc1c(Cl)cc(NC(=S)Nc2ccc(NC(C)=O)cc2)cc1Cl")
1.70
>>> quantitative_result("CC(=O)Nc1ccc(NC(=S)Nc2ccc(I)c(Cl)c2)cc1")
1.00
>>> quantitative_result("COc1cc(OC)c(NC(=S)Nc2ccc(N(C)C(C)=O)cc2)cc1Cl")
1.70
>>> quantitative_result("C=Cc1ccc(NC(=S)Nc2ccc(NC(C)=O)cc2)cc1Cl")
0.48
>>> quantitative_result("CC(=O)Nc1ccc(NC(=S)Nc2ccc(NCc3ccccc3)c(Cl)c2)cc1")
1.00
>>> quantitative_result("COc1cc(OC)c(NC(=S)Nc2ccc(NC(C)=O)cc2)cc1I")
0.78
>>> quantitative_result("CC(=O)Nc1ccc(NC(=S)Nc2ccc(NC(C)=O)c(Cl)c2)cc1")
1.70
>>> quantitative_result("CC(=O)Nc1ccc(NC(=S)Nc2ccc(N3CCCCC3)c(Cl)c2)cc1")
1.40

Now, please, on to the next compound.
Summary for this compound, CC(=O)Nc1ccc(NC(=S)Nc2ccc(F)c(Cl)c2)cc1 : log10 of IC50 is 0.60

* * *

Test system: HSV-1
ASSAY OVERVIEW: HSV Antiviral (ELISA) Assay
Format: cell-based, herpes simplex virus type 1
RUN PARAMETERS: Human alphaherpesvirus 1, Vero, Vero cells, HSV-1; read-out: IC50 Ug/ml HSV
OBSERVED PROPERTY: IC50 (µg/mL)
The reply should contain only the number, in µg/mL.

>>> quantitative_result("COCCN(C)c1ccc(NC(=S)Nc2ccc(NC(C)=O)cc2)cc1Cl [Example 317]")
35
>>> quantitative_result("CCCCOc1cc(OC)c(Cl)cc1NC(=S)Nc1ccc(NC(C)=O)cc1 [Example 833]")
7
>>> quantitative_result("COc1ccc(NC(=S)Nc2ccc(NC(C)=O)cc2)c(OC)n1 [Example 896]")
12
>>> quantitative_result("CC(=O)Nc1ccc(NC(=S)Nc2ccc(OC3CCN(C)CC3)c(Cl)c2)cc1 [Example 335]")
30
>>> quantitative_result("CCCCOc1cc(OC)c(NC(=S)Nc2ccc(NC(C)=O)cc2)cc1Cl [Example 834]")
10
>>> quantitative_result("CCOc1cc(OC)c(NC(=S)Nc2ccc(NC(C)=O)cc2)cc1Cl [Example 832]")
9

Please find the next compound below.
The compound listed as CC(=O)Nc1ccc(NC(=S)Nc2cc(C(F)(F)F)ccc2Cl)cc1 [Example 111] has a reported IC50 of 15

* * *

Test system: HSV-1
ASSAY OVERVIEW: HSV Antiviral (ELISA) Assay
Type: cell-based, herpes simplex virus type 1
RUN PARAMETERS: Human alphaherpesvirus 1, Vero, Vero cells, HSV-1; read-out: IC50 Ug/ml HSV
Procedure: Vero cells (ATCC #CCL-81) are plated on 96-well tissue culture plates at 3.5×10^4 cells per 100 μl tissue culture DMEM (Dulbecco's modified Eagle media) supplemented with 2% fetal bovine serum (FBS) in each well. After overnight incubation @ 37° C. […] Antiviral activity (IC50) of the test compound is determined by comparing the flourescence obtained in absence of compound to that obtained in the presence of compound.
Rule: IC50 below 20 µg/mL gives Condition met, anything at or above gives Condition not met.

>>> assigned_label("COc1cc(OC)c(NC(=S)Nc2ccc(NC(C)=O)cc2)cc1F")
"Condition met"
>>> assigned_label("COc1cc(NC(=S)Nc2ccc(NC(C)=O)cc2)cc(OC)c1OC")
"Condition not met"
>>> assigned_label("CCOC(=O)COc1c(Cl)cc(NC(=S)Nc2ccc(NC(C)=O)cc2)cc1Cl")
"Condition not met"
>>> assigned_label("COc1cc(NCc2ccccc2)c(NC(=S)Nc2ccc(NC(C)=O)cc2)cc1Cl")
"Condition met"
>>> assigned_label("CC(=O)Nc1ccc(NC(=S)Nc2ccc(N(C)C3CCCC3)c(Cl)c2)cc1")
"Condition met"
>>> assigned_label("COc1cc(OC)c(NC(=S)Nc2ccc(NC(C)=O)c(C(=O)O)c2)cc1Cl")
"Condition not met"

For this compound, is IC50 lower than 20 µg/mL? CC(=O)Nc1ccc(NC(=S)Nc2cccc([N+](=O)[O-])c2)cc1
Condition not met

Would you kindly verify if IC50 of COc1cc(OC)c(NC(=S)Nc2ccc(NC(C)=O)c(C#N)c2)cc1Cl is strictly less than 20 µg/mL?
Condition not met

Regarding COc1cc(OC)c(NC(=S)Nc2ccc(NC(C)=O)c(C(=O)c3ccccc3)c2)cc1Cl , kindly confirm whether its IC50 is beneath 20 µg/mL.
Condition not met

Quick check: does CC(=O)Nc1ccc(NC(=S)Nc2ccc(OCCCN(C)C)c(Cl)c2)cc1 have IC50 under 20 µg/mL?
Condition not met

# check: IC50 < 20 µg/mL for COc1cc(OC)c(NC(=S)Nc2ccc(NC(C)=O)nc2)cc1Cl
Condition met

Determine if CC(=O)Nc1ccc(NC(=S)Nc2ccc(OC3CCN(C)C3)c(Cl)c2)cc1 (centres unmarked) shows IC50 strictly lower than 20 µg/mL.
Condition not met

Say whether its IC50 is strictly beneath 20 µg/mL. Entry: CC(=O)Nc1ccc(NC(=S)Nc2cc(Cl)c(O)c(Cl)c2C)cc1
Condition not met

Find out if reported IC50 for CC(=O)Nc1ccc(NC(=S)Nc2cc(Cl)c(Cl)c(Cl)c2)cc1 is less than 20 µg/mL
Condition met

* * *

# key: entry, value: inhibition at 10 µg/mL
Test system: VZV strain Ellen
ASSAY OVERVIEW: VZV Antiviral (ELISA) Assay
Format: cell-based, varicella-zoster virus
RUN PARAMETERS: Human alphaherpesvirus 3, Fibroblast, read-out: % inhibition 10 ug/ml VZV, 10 ug/ml; human foreskin fibroblast cells
Experimental: For the generation of stock VZV to be used in the assay, VZV strain Ellen (ATCC #VR-1367) is used to infect human foreskin fibroblast (HFF) cells at low multiplicity (less than 0.1) and incubated overnight at 37° C. in 5% CO2. […] Antiviral activity (IC50) of the test compound is determined by comparing the flourescence obtained in absence of compound to that obtained in the presence of compound.
Number in %, nothing else.

>>> quantitative_result("COc1ccc(Cl)cc1NC(=S)Nc1ccc(NC(C)=O)cc1 [Example 107]")
20
>>> quantitative_result("COc1cc(OC)c(NC(=S)Nc2ccc(N(C)C(C)=O)cc2)cc1Cl [Example 99]")
2

molecule CC(=O)Nc1ccc(NC(=S)Nc2ccc(N(C)c3ccccc3)c(Cl)c2)cc1 [Example 842] , inhibition at 10 µg/mL observed: 33

* * *

Test system: VZV strain Ellen
ASSAY OVERVIEW: VZV Antiviral (ELISA) Assay
Format: cell-based, varicella-zoster virus
RUN PARAMETERS: Human alphaherpesvirus 3, Fibroblast, read-out: % inhibition 10 ug/ml VZV, 10 ug/ml; human foreskin fibroblast cells
Categories are defined by ranges of inhibition at 10 µg/mL, namely low = under 20%, middle = from 20% up to 30%, high = 30% and over

>>> assigned_label("CCCCOc1ccc(NC(=S)Nc2ccc(NC(C)=O)cc2)cc1Cl [Example 266]")
"low"

Textbook exercise: identify the category of the molecule given here, COc1cc(OC)c(NC(=S)Nc2cc(OC)c(NC(C)=O)cc2OC)cc1Cl [Example 261] , according to its measured value.
low

Class? Entry: CC(=O)Nc1ccc(NC(=S)Nc2ccc(N(C)C3CCN(C)C3)c(Cl)c2)cc1 (stereo not drawn) [Example 845]
middle

Band for CC(=O)Nc1ccc(NC(=S)Nc2ccc(N(CCO)CCO)c(Cl)c2)cc1 [Example 905] ?
high

Could you place COc1cc(OC)c(NC(=S)Nc2ccc(NC(C)=O)cc2C)cc1Cl [Example 297] in its proper category? Many thanks.
middle

Could you tell me which band COc1cc(N2CCCC2)c(NC(=S)Nc2ccc(NC(C)=O)cc2)cc1Cl [Example 228] belongs to?
high

Exam item: assign CC(=O)Nc1ccc(NC(=S)Nc2ccc(C#N)c(Cl)c2)cc1 [Example 899] to the correct category.
low

Please let me know in which category the item CC(=O)Nc1ccc(NC(=S)Nc2ccc(-c3cc[nH]n3)c(Cl)c2)cc1 [Example 925] belongs.
high

Class for CC(=O)Nc1ccc(NC(=S)Nc2ccc(NCc3ccccc3)c(Cl)c2)cc1 [Example 241] ?
middle

Determine which band this molecule sits in: CC(=O)Nc1ccc(NC(=S)Nc2ccc(NC(C)=O)c(Cl)c2)cc1 [Example 312]
middle

In plain terms, what class is COc1cc(O)c(NC(=S)Nc2ccc(NC(C)=O)cc2)cc1Cl [Example 839] ?
low

Which bin should I file CC(=O)Nc1ccc(NC(=S)Nc2ccc(OCC#N)c(Cl)c2)cc1 [Example 251] under?
middle

Dear colleague, I would appreciate it if you could identify the bin for CCOc1cc(OC)c(Cl)cc1NC(=S)Nc1ccc(NC(C)=O)cc1 [Example 831] and reply at your convenience.
low

Place this molecule in its band: CCOC(=O)COc1c(Cl)cc(NC(=S)Nc2ccc(NC(C)=O)cc2)cc1Cl [Example 884]
middle

Which class is correct for the following molecule? COc1cc(OCCCC#N)c(Cl)cc1NC(=S)Nc1ccc(NC(C)=O)cc1 [Example 211]
high
